# PROTOCOL DESCRIPTION: in vitro
# CONDITION LABEL: human
ASSAY METRIC: CC50 (µM)
Return type: number; implicit unit µM.

State the recorded CC50 for this entry: O=c1nc(NO)ccn1[C@@H]1O[C@H](CO)[C@@H](O)[C@H]1O [NHC, N^4-hydroxycytidine]
137
